target: Left-right determination factor 2 (Homo sapiens); experiment: small molecules binding LEFTY2 protein – biochemical, small-molecule microarray, 635 nm fluorescence scan, primary screen (AID 1110); settings: higher = more signal
test.readout: composite z-score

{"molecule": "CCCCC(=C=CC[C@@H](O)c1ccc(CO)o1)CCO", "target.or.test.system": "Left-right determination factor 2 (Homo sapiens)", "result.number": 0.38}
{"molecule": "C=CC[C@]1(C(=O)NCc2ccccc2)N=C(c2ccc(OCCCO)cc2)O[C@H]1c1ccccc1CN=[N+]=[N-]", "target.or.test.system": "Left-right determination factor 2 (Homo sapiens)", "result.number": 0.13}
{"molecule": "C=CCC(OC(C)=O)[C@@H]1[C@@H](N(Cc2ccc(-c3cccc(C(F)(F)F)c3)o2)C(=O)Cc2ccc(OC)cc2)c2cc(OCCCO)ccc2N1C(=O)c1ccc2ccccc2c1 (some centres undefined)", "target.or.test.system": "Left-right determination factor 2 (Homo sapiens)", "result.number": -0.394}
{"molecule": "CN1C(=O)C2C=CC(C(O)c3c(F)cccc3Cl)N(NC(=O)OC(C)(C)C)C2C1=O (centres undefined)", "target.or.test.system": "Left-right determination factor 2 (Homo sapiens)", "result.number": -0.0662}
{"molecule": "O=C1OCCC/C=C\\[C@H]2OC34C=CCN(c5ccc6ccccc6c5)C(=O)[C@H]3N(CCCCCO)C(=O)[C@@H]4C12 (some centres undefined)", "target.or.test.system": "Left-right determination factor 2 (Homo sapiens)", "result.number": -1.07}
{"molecule": "C[N+](C)(C)CCCCCCNC(=O)[C@H]1C[C@H]2C(=O)N[C@@H](Cc3ccccc3)C(=O)N2[C@H]1c1cccc(OCCO)c1", "target.or.test.system": "Left-right determination factor 2 (Homo sapiens)", "result.number": 0.642}
{"molecule": "O=C1O[C@H](c2ccccc2)[C@H](c2ccccc2)N2[C@H]1[C@@H](C(=O)N1CCN(c3ncccn3)CC1)[C@]1(C(=O)Nc3ccc(C#CC4=CCCCC4)cc31)[C@H]2c1ccccc1OCCO", "target.or.test.system": "Left-right determination factor 2 (Homo sapiens)", "result.number": 0.818}
{"molecule": "O=C1NC(=O)C2C1C=CC(C(O)c1ccc(-c3ccccc3)s1)N2Nc1ccc(Cl)cc1Cl (centres undefined)", "target.or.test.system": "Left-right determination factor 2 (Homo sapiens)", "result.number": -0.114}
{"molecule": "CN(C)CCCCCCNC(=O)[C@@H]1C[C@@H]2C(=O)N[C@@H](CCCC[N+](C)(C)C)C(=O)N2[C@@H]1c1ccc(O)cc1", "target.or.test.system": "Left-right determination factor 2 (Homo sapiens)", "result.number": 0.839}
{"molecule": "O=C1C2C=CC(C(O)C=Cc3ccc([N+](=O)[O-])cc3)N(Nc3ccccc3F)C2C(=O)N1c1ccccc1 (centres undefined)", "target.or.test.system": "Left-right determination factor 2 (Homo sapiens)", "result.number": 0.458}
{"molecule": "[N-]=[N+]=Nc1ccccc1C[C@@]1(C(=O)N2CCCCC2)N=C(c2ccc(OCCCO)cc2)O[C@@H]1c1ccccc1", "target.or.test.system": "Left-right determination factor 2 (Homo sapiens)", "result.number": 0.0334}
{"molecule": "NC(=O)[C@@]1(Cc2ccccc2)N=C(c2ccc(OCCCO)cc2)O[C@H]1c1ccccc1", "target.or.test.system": "Left-right determination factor 2 (Homo sapiens)", "result.number": -0.949}
{"molecule": "O=C1O[C@H](c2ccccc2)[C@H](c2ccccc2)N2[C@H]1[C@@H](C(=O)NC[C@H](O)c1ccccc1)[C@]1(C(=O)Nc3ccc(C#CC4=CCCCC4)cc31)[C@H]2c1ccccc1OCCO", "target.or.test.system": "Left-right determination factor 2 (Homo sapiens)", "result.number": 0.155}
{"molecule": "COc1ccc(CCNC(=O)[C@@]2(c3ccc([N+](=O)[O-])cc3)CC(=O)N(CC34CC5CC(CC(C5)C3)C4)[C@@H]2c2ccc(CO)cc2I)cc1", "target.or.test.system": "Left-right determination factor 2 (Homo sapiens)", "result.number": 0.261}

###

experiment: probe aWnt5a binding to arrayed compounds – biochemical, biotinylated probe, 635/667 nm fluorescence, primary screen (AID 1113); settings: small-molecule microarray, higher = more signal;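 note: score merges 667 nm fluorescence intensity with signal-to-noise per printed feature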
Here the recorded composite z-score is given for each entry.

{"compound": "CN1C(=O)C2C=CC(C(O)c3ccccc3)N(N3CCCCC3)C2C1=O (configuration not stated)", "composite z-score": 0.28}
{"compound": "CCCC[C@@H]1C[C@H]1[C@@H](NC(=O)c1cccnc1)c1ccc(Cl)cc1", "composite z-score": -0.191}
{"compound": "CC(C)[Si](C#CCCCC#N)(O[C@H](c1ccccc1)c1cn(Cc2cccc(Cl)c2)nn1)C(C)C", "composite z-score": -0.0977}
{"compound": "COCCOC(=O)N1C(=O)[C@@]2(c3cc(C#CC4=CCCCC4)ccc31)[C@H](c1ccc(OCCO)cc1)N1[C@H](c3ccccc3)[C@H](c3ccccc3)OC(=O)[C@H]1[C@@H]2C(=O)N1CCc2cc(OC)c(OC)cc2C1", "composite z-score": 0.139}
{"compound": "CC(C)CN1C(=O)[C@@]2(c3ccc([N+](=O)[O-])cc3)CC(=O)N(C3CCCCC3)[C@@H]2c2ccc(CO)cc21", "composite z-score": -0.208}
{"compound": "C=CC[C@@]1(C(=O)N2CCCCC2)N=C(c2ccc(OCCCO)cc2)O[C@@H]1c1ccccc1CN=[N+]=[N-]", "composite z-score": 0.104}
{"compound": "COc1cc(CO)cc(I)c1O[C@H]1C=C(C(=O)NCCO)C[C@@H](N(C(=O)c2cc3ccccc3oc2=O)C2CCCCCC2)[C@@H]1O", "composite z-score": -0.096}
{"compound": "CCCCCCCCCCC(O)C1C=CC2C(=O)NC(=O)C2N1Nc1ccc(Cl)cc1Cl (configuration not stated)", "composite z-score": -0.122}
{"compound": "CCN(CC)c1ccc(N2CC=CC34O[C@@H]5C=CCOC(=O)[C@@H]5[C@H]3C(=O)N(CCCCCCO)[C@@H]4C2=O)cc1 (some centres not stated)", "composite z-score": -0.152}
{"compound": "O=c1cccc(-c2ccccc2Cl)o1", "composite z-score": -0.124}
{"compound": "COc1ccc([Si](C)(C)[C@H]2[C@H](CCn3cc([C@H](O)c4ccccc4)nn3)O[C@@]3(C(=O)N(C)c4ccccc43)[C@@H]2C)cc1", "composite z-score": -0.119}
{"compound": "C=CC1c2cc(O)c(OC)cc2CCN1Cc1cccc(OC(F)(F)F)c1 (configuration not stated)", "composite z-score": -0.175}
{"compound": "OB1C=CCC(CCc2ccccc2)O1 (configuration not stated)", "composite z-score": -0.263}
{"compound": "COC(=O)[C@@]1(Cc2ccc(OC)cc2)[C@H]2c3cc(C(=O)N4CCCC4)n(CCc4ccc(O)c(O)c4)c3C[C@H]2CN1C(=O)c1ccccc1", "composite z-score": -0.0057}
{"compound": "C=C(CCCC)/C(=C/C[C@@H](OC(C)=O)c1ccccc1OCCO)c1cc(C(=O)OC)ccc1OC", "composite z-score": -0.124}
{"compound": "O=C1NC(=O)C2C1C=CC(C(O)c1ccc(I)cc1)N2Nc1ccccn1 (configuration not stated)", "composite z-score": 0.0136}
{"compound": "COCCCNC(=O)[C@@]1(Cc2ccccc2CN=[N+]=[N-])N=C(c2ccc(OCCCO)cc2)O[C@H]1c1ccccc1CN=[N+]=[N-]", "composite z-score": 0.173}

###

assay: probe aWnt5a binding to arrayed compounds – biochemical, biotinylated probe, 635/667 nm fluorescence, primary screen (AID 1113); details: small-molecule microarray, higher = more signal;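 note: score merges 667 nm fluorescence intensity with signal-to-noise per printed feature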
Here the recorded composite z-score is given for each entry.

{"compound": "O=C1NC(=O)C2C1C=CC(C(O)C1CC=CCC1)N2Nc1ccccn1 (centres undefined)", "composite z-score": -0.0643}
{"compound": "C=CC[C@]1(C(N)=O)N=C(c2ccc(OCCCO)cc2)O[C@H]1c1ccccc1", "composite z-score": -0.0685}
{"compound": "NC(=O)[C@@H]1[C@H]2C(=O)O[C@H](c3ccccc3)[C@H](c3ccccc3)N2[C@H](c2ccc(OCCO)cc2)[C@@]12C(=O)Nc1ccc(C#CC3=CCCCC3)cc12", "composite z-score": 0.0182}
{"compound": "COC(=O)[C@@]1(Cc2ccccc2)[C@H]2c3cc(C(=O)N(C)C)n(Cc4ccc(OC)c(OC)c4)c3C[C@H]2CN1C(=O)c1ccccc1", "composite z-score": 0.229}

###

test: probe aXIP binding to arrayed compounds – biochemical, NeuroSMM set, 635/667 nm fluorescence, primary screen (AID 1119); details: small-molecule microarray, higher = more signal, called active from +8 up or from −8 down;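 note: probe is the protein aXip251-270 applied at 1 µg/mL to compound-printed slides; binding of probe to printed compounds measured as 667 nm fluorescence plus signal to noise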
Please enter TRUE where composite Z-score is greater than or equal to 0.1, and FALSE where it is lower.

{"compound": "C=C(CCCC)/C(=C/C[C@@H](OC(C)=O)c1ccccc1OCCO)c1cc(C(=O)OC)ccc1OC", "label.class": "FALSE"}
{"compound": "CC(C)OC(=O)C=C1C[C@@H](c2cccc(Cl)c2)O[C@@H](c2cccc(Cl)c2)O1", "label.class": "TRUE"}
{"compound": "NC(=O)N1C(=O)C2C(C1=O)C1C=C(CCCO)C2C(C2CC2)N1Cc1cc2c(cc1Br)OCO2 (stereo not given)", "label.class": "FALSE"}
{"compound": "COC(=O)C(CC#Cc1ccc2c(c1)[C@]1(C(=O)N2)[C@H](c2ccccc2OCCO)N2[C@H](c3ccccc3)[C@H](c3ccccc3)OC(=O)[C@H]2[C@@H]1C(=O)O)C(=O)OC", "label.class": "FALSE"}
{"compound": "COc1ccc([Si](C)(C)[C@@H]2[C@@H](CC(=O)N3CCC[C@H]3CO)O[C@]3(C(=O)N(Cc4cccc(I)c4)c4ccccc43)[C@H]2C)cc1", "label.class": "TRUE"}
{"compound": "O=C1NC(=O)C2C1C=CC(C(O)C=Cc1ccc([N+](=O)[O-])cc1)N2Nc1ccc(Cl)cc1Cl (stereo not given)", "label.class": "TRUE"}
{"compound": "CCCCN1CC=CC23O[C@@H]4/C=C\\CCCOC(=O)C4[C@H]2C(=O)N(CCCO)[C@@H]3C1=O (stereo not given in full)", "label.class": "TRUE"}
{"compound": "[N-]=[N+]=NCc1ccccc1[C@H]1OC(c2ccc(OCCCO)cc2)=N[C@@]1(Cc1ccccc1)C(=O)N1CCCCC1", "label.class": "FALSE"}
{"compound": "Cc1c(NC(=O)/C(C#N)=C/c2cccc([N+](=O)[O-])c2)c(=O)n(-c2ccccc2)n1C", "label.class": "FALSE"}
{"compound": "Cc1ccc(C2C3C(=O)CC4C(=O)N(c5ccccc5)C(=O)C4C3CN2S(=O)(=O)c2ccc(C)cc2)cc1 (stereo not given)", "label.class": "FALSE"}
{"compound": "CCCC(=O)N(CCc1c[nH]c2ccccc12)[C@@H]1CC(C(=O)NCCO)=C[C@H](Oc2c(I)cc(CO)cc2OC)[C@H]1O", "label.class": "FALSE"}
{"compound": "CC(C)NC(=O)[C@@]1(Cc2ccccc2I)c2ccccc2C(=O)N(Cc2ccccc2Cl)[C@H]1c1ccc(CO)cc1", "label.class": "TRUE"}
{"compound": "C#CCN1[C@@H](Cc2ccc(O)cc2)C(=O)O[C@H](Cc2ccccc2)[C@@H]1/C=C/C1CC1", "label.class": "TRUE"}
{"compound": "CC(=CC1CCCCC1)[C@@H](NC(=O)c1cccnc1)c1ccc(-c2ccccc2)cc1", "label.class": "FALSE"}
{"compound": "COCCOC(=O)N1C(=O)[C@@]2(c3ccccc31)[C@H](c1ccc(OCCO)cc1)N1[C@H](c3ccccc3)[C@H](c3ccccc3)OC(=O)[C@H]1[C@@H]2C(=O)N1CCc2cc(OC)c(OC)cc2C1", "label.class": "TRUE"}
